# condition.notes: buffer; pH 7.4; 6.0 h; 150.0 µM
# solubility kinetic per entry
measurement.label: solubility kinetic

{"compound": "COc1ccc(C(=O)N2CCCC(c3nn(-c4ccc(OC)cc4)c(=O)[nH]3)C2)cc1 (stereo unspecified)", "recorded.value": "> 60 µg/mL"}
{"compound": "CN(C(=O)CSc1nc2c(c(=O)[nH]1)CCCC2)c1ccccc1", "recorded.value": "> 49 µg/mL"}
{"compound": "O=C1C(SCCO)=C(SCCO)C(=O)c2ccccc21", "recorded.value": "> 31 µg/mL"}
{"compound": "CCOc1ccccc1N1CC(c2nc3ccccc3n2CCOc2ccc(C(C)(C)C)cc2)CC1=O (stereo unspecified)", "recorded.value": "< 1 µg/mL"}
{"compound": "C=CCc1ccc(O)c(-c2ccc(O)c(CC=C)c2)c1", "recorded.value": "> 100 µg/mL"}
{"compound": "COc1cccc(-c2noc(Nc3ccc4c(c3)OCCO4)n2)c1", "recorded.value": "< 1 µg/mL"}
